Target: T1, Mouse CD79A+CD79B antigen (mouse) (UniProt P11911)
T1 sequence (looked up) 1: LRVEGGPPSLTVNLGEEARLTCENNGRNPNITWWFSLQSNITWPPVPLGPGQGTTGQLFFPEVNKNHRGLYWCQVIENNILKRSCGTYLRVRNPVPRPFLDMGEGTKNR
T1 sequence (looked up) 2: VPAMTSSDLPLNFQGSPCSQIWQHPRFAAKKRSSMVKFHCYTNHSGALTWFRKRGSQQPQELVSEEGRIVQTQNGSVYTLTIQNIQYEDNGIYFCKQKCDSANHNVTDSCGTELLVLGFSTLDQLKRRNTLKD
Experiment: ELISA on coated antigen, anti-myc detection; 200pg antibody added
Give OD450 nm for every item shown.
Quote the value and follow it with the unit of measurement.

Binder	Experimental Value
anti-CD79B single-domain antibody JYB10 (VHH, Alpaca VHH from a phage library; ELISA detected with an anti-myc antibody; a myc tag is not described; not shown: His-tag protein at the C-terminal end) VHH: DVQLQESGGGLVQPGGSLSLSCAASISSSSIWVRAWHRQAPGKQRELVAAINNDGQTMYADSVKGRFTISRDNAKTTVSLQMNSLKPEDTAVYYCNVVTPKGHQYWGQGTQVTVSS	0.0584 OD450

Give OD450 nm for each of the items listed below.
1. anti-CD79B single-domain antibody JYB4 (VHH, Alpaca VHH from a phage library; not shown: His-tag protein at the C-terminal end) VHH: DVQLQESGGGLVQPGGSLRLSCAASGFAFSLYAMSWARQAPGKGLEWVSDIYGDDDSRRNYADSVKGRFTISRDNAKNTVYLQMTNLQPEDTALYYCGKGRDGTRWSAREYEYRGQGTQVTVSS
2. anti-CD79B single-domain antibody JYB8 (VHH, not shown: small tags and cut ends) VHH: DVQLQESGGGLMQPGGSLSLTCTASISSLSIWVRAWHRQAPGKQRELVAAINSDGQTMYADSVKGRFTISRDSAKTTVSLQMDSLKPEDTAVYYCNVVTPKGQQYWGQGTQVTVSS
3. anti-CD79B single-domain antibody JYB14 (VHH, Alpaca VHH from a phage library; ELISA detected with an anti-myc antibody; a myc tag is not described; not shown: His-tag protein at the C-terminal end) VHH: DVQLQESGGGLVQPGGSLSLTCTASISSLTIWVRAWHRQAPGKQRELVAAINSDGQTMYADSVKGRFTISRDNAKTTVSLQMDSLKPEDTAVYYCNVVTPNGQQYWGQGTQVTVSS

1: 0.0601 OD450; 2: 0.0619 OD450; 3: 0.0609 OD450
